Reported growth inhibition values for the following compounds.
assay: NCI Yeast Anticancer Drug Screen. Data for the mlh1 rad18 strain (AID 175); conditions: S. cerevisiae mlh1 rad18 strain growth inhibition; at 50.0 µM; active compounds read high
Compounds without any hit were thinned out: in the full panel of roughly 79,000, 15% have a hit.
MEASURED ATTRIBUTE: growth inhibition (%)

- COMPOUND: "CC(O)CCC(C)O (stereo not given)"
  ASSAY RESULT: 10.2
- COMPOUND: "Nc1ncnc2c1ncn2C1OC(COP(=O)(O)OP(=O)(O)OCC2OC([n+]3cccc(C=O)c3)C(O)C2O)C(O)C1O (stereo not given)"
  ASSAY RESULT: 12.3
- COMPOUND: "CCN(CC)C1=CC(=O)C(N(CC)CC)=CC1=O"
  ASSAY RESULT: 2.35
- COMPOUND: "CCOc1c(OC)ccc(/C(C)=N\\O)c1OCC"
  ASSAY RESULT: 10.1
- COMPOUND: "O=C1NC(=O)N2CC(CI)OC2C1c1ccccc1 (stereo not given)"
  ASSAY RESULT: 11.4
- COMPOUND: "OC(c1cccc(OCc2ccccc2)c1)c1ccccn1 (stereo not given)"
  ASSAY RESULT: 2
- COMPOUND: "CC1=CCC2(C#N)CCC1C2O (stereo not given)"
  ASSAY RESULT: 17.6
- COMPOUND: "O=C(/C=C/c1c(-c2ccccc2)[nH]c2ccccc12)c1cccc([N+](=O)[O-])c1"
  ASSAY RESULT: 36.2
- COMPOUND: "CN1CCCS/C1=C1/SC(=S)N(c2ccccc2)C1=O"
  ASSAY RESULT: -17.4
- COMPOUND: "Cn1c(C=O)cc2c(Cl)nccc21"
  ASSAY RESULT: -1.15
- COMPOUND: "COC(=O)C1(CC(=O)C2CC2)NC(=S)NC(=O)C1C#N (stereo not given)"
  ASSAY RESULT: 5.2
- COMPOUND: "CCOC(=O)c1cc2c(oc1=O)-c1cc(C)ccc1OC2C (stereo not given)"
  ASSAY RESULT: 11.1
- COMPOUND: "COC(=O)C(Cc1nc2ccccc2[nH]c1=O)/C(=N\\NC(C)(C)C)C(=O)Nc1c(C)cc(Br)cc1C (stereo not given)"
  ASSAY RESULT: -3
- COMPOUND: "Cn1c2c(c3ccccc31)C(=O)CC2(C)C"
  ASSAY RESULT: 2.15
- COMPOUND: "Nc1ccccc1/C=C(\\C(=O)O)c1ccccc1"
  ASSAY RESULT: 11.4
- COMPOUND: "Cc1cc(C#N)c[n+](C)c1"
  ASSAY RESULT: -3.75
- COMPOUND: "CN(C)Cc1ccccc1COC(=O)c1ccc([N+](=O)[O-])cc1Cl"
  ASSAY RESULT: -34.1
- COMPOUND: "OCC12CCCC(OC1)O2 (stereo not given)"
  ASSAY RESULT: -4.65
- COMPOUND: "CC1SCC(=O)N1c1nncs1 (stereo not given)"
  ASSAY RESULT: -46.6
- COMPOUND: "O=C(O)Cc1n[nH]c(=O)c2ccccc12"
  ASSAY RESULT: -7.7
- COMPOUND: "COc1ccccc1NC(=O)/C(Cc1nc2ccc([N+](=O)[O-])cc2[nH]c1=O)=N\\NC(=O)C[N+](C)(C)C"
  ASSAY RESULT: 13.2
- COMPOUND: "CCN=C(c1ccccc1)N(O)c1ccccc1"
  ASSAY RESULT: -14.1
- COMPOUND: "C=C/C=C1\\CCOC1=O"
  ASSAY RESULT: -10.6
- COMPOUND: "CCO/C([O-])=C(\\C=N\\S(=O)(=O)c1ccc(C)cc1)[n+]1ccccc1"
  ASSAY RESULT: 2.65
- COMPOUND: "COc1ccc(NS(=O)c2ccc(Cl)cc2)cc1 (stereo not given)"
  ASSAY RESULT: 13.9
